src = the NIST ThermoML archive (doi:10.1016/j.jct.2011.01.014)

# PARTICULARS: 305.65 K; 101 kPa; Liquid; sound velocity cell
Listed below: speed of sound values for each entry.
A number alone suffices; assume m/s.

Solved entries (count: 3):
CO [methanol] ... 1078.3
O [water] ... 1515.1
CCO [ethanol] ... 1118.1

Next, consider the following compound.
Recorded speed of sound of CC(=O)[O-].[NH3+]CCO [2-hydroxyethylammonium acetate] , please.
1773.4

====

# PARTICULARS: 290.65 K; 101 kPa; Liquid; sound velocity cell
PROPERTY LABEL: speed of sound (m/s)
Only the number, expressed in m/s, is required.

Example entries and their recorded answers appear below.
O [water] ... 1474.7
CC(=O)[O-].[NH3+]CCO [2-hydroxyethylammonium acetate] ... 1810

What measured speed of sound goes with CCO [ethanol] ?
1169.2

May I ask what speed of sound has been recorded for CO [methanol] ?
1127.7

====

Listed below: mass density values for each entry.
# PARTICULARS: 323.15 K; 101 kPa; Liquid; Vibrating tube method
Your answer should be a plain number; it is taken to be in kg/m3.

CO ... 762.809
O ... 988.04
CC(=O)[O-].[NH3+]CCO [2-hydroxyethylammonium acetate] ... 1135.08

I would be grateful if you could share the reported mass density for `CCO` .
763.296

====

# PARTICULARS: 305.65 K; 101 kPa; Liquid; Vibrating tube method
PROPERTY LABEL: mass density (kg/m3)
Number only, in kg/m3; omit the unit.

Here are 3 compounds together with their reported answers.
CCO ... 778.773
CO ... 779.612
CC(=O)[O-].[NH3+]CCO [2-hydroxyethylammonium acetate] ... 1144.8

Lab note: next compound to report on.
# get_value(readout='mass density', item= `O` )
994.86

====

# PARTICULARS: 318.15 K; 101 kPa; Liquid; sound velocity cell
Numbers after ± are expanded uncertainties.
PROPERTY LABEL: speed of sound
Give the figure together with its unit, number first.

O ... 1536.6 ± 1 m/s
CO ... 1037.9 ± 1.1 m/s
CC(=O)[O-].[NH3+]CCO [2-hydroxyethylammonium acetate] ... 1746.5 ± 3.2 m/s

Would you kindly look at the next entry?
Fill in: speed of sound of `CCO` is ___
1076.2 ± 1.1 m/s

====

# PARTICULARS: 300.65 K; 101 kPa; Liquid; sound velocity cell
Numbers after ± are expanded uncertainties.
PROPERTY LABEL: speed of sound
Answers without a unit are incomplete; give the number and then its unit.

Use the examples below as a reference point.
CCO ... 1135 ± 1.1 m/s
O ... 1503.4 ± 1 m/s
CO ... 1094.7 ± 1.1 m/s

Let us examine a further case.
Please look up its speed of sound: CC(=O)[O-].[NH3+]CCO [2-hydroxyethylammonium acetate]
1784.8 ± 3.2 m/s

====

# PARTICULARS: 320.65 K; 101 kPa; Liquid; Vibrating tube method
Each entry below lists one item and its recorded mass density value.
State just the number; it will be interpreted in kg/m3.

# annotated cases, reported mass density shown
O [water] ... 989.15
CC(=O)[O-].[NH3+]CCO [2-hydroxyethylammonium acetate] ... 1136.45
CO [methanol] ... 765.229

// below: mass density requested for another molecule
Recorded mass density for CCO [ethanol] , please?
765.534

====

# PARTICULARS: 315.65 K; 101 kPa; Liquid; sound velocity cell
PROPERTY LABEL: speed of sound (m/s)
The response must be a number in m/s with no trailing unit.

Consider the worked cases shown below.
CC(=O)[O-].[NH3+]CCO [2-hydroxyethylammonium acetate] ... 1751.9
CCO [ethanol] ... 1084.5
O [water] ... 1533.2

Turning to the following molecule.
Query: speed of sound; subject: CO [methanol]
1045.9

====

# PARTICULARS: 310.65 K; 101 kPa; Liquid; Vibrating tube method
Examples of molecules with documented mass density follow.
Quick note: give the figure in kg/m3, leave out the unit.

CCO [ethanol] ... 774.405
CO [methanol] ... 774.851
CC(=O)[O-].[NH3+]CCO [2-hydroxyethylammonium acetate] ... 1141.96

Need mass density of O [water] , thanks.
993.15

====

Attribute: mass density
# PARTICULARS: 300.65 K; 101 kPa; Liquid; Vibrating tube method
Give the quantity in kg/m3, number only.

Record excerpt, results attached:
CO ... 784.349
CC(=O)[O-].[NH3+]CCO [2-hydroxyethylammonium acetate] ... 1147.63
CCO ... 783.106

Now take the following molecule into account.
Consider the molecule shown here: `O` What is its recorded mass density?
996.37

====

In this section we review reported speed of sound values for a set of compounds.
# PARTICULARS: 313.15 K; 101 kPa; Liquid; sound velocity cell
Respond numerically; units are m/s and should not be typed.

Any idea what speed of sound was measured for `CCO` ?
1092.8

Name the recorded speed of sound for CC(=O)[O-].[NH3+]CCO [2-hydroxyethylammonium acetate] .
1757.2

Endpoint output: speed of sound of `CO` . Value?
1054

Data request, read-out speed of sound, for `O`
1529.3

====

# PARTICULARS: 310.65 K; 101 kPa; Liquid; sound velocity cell
# speed of sound annotations
Reply with just the number (in m/s).

Please look up its speed of sound: CC(=O)[O-].[NH3+]CCO [2-hydroxyethylammonium acetate]
1762.5

speed of sound lookup needed for `CCO` , thanks.
1101.2

Give its speed of sound value. Item: `CO`
1062.1

Data request, read-out speed of sound, for `O`
1525

====

# PARTICULARS: 295.65 K; 101 kPa; Liquid; Vibrating tube method
PROPERTY LABEL: mass density (kg/m3)
API: value field is a number in kg/m3; no unit string.

CO ... 789.066
CC(=O)[O-].[NH3+]CCO [2-hydroxyethylammonium acetate] ... 1150.45
O ... 997.65

Field request: mass density | item: `CCO`
787.411

====

# PARTICULARS: 295.65 K; 101 kPa; Liquid; sound velocity cell
PROPERTY LABEL: speed of sound (m/s)
Answer in m/s, number only, no unit symbol.

Below, 3 compounds whose answers are already recorded.
CCO ... 1152
CO ... 1111.3
CC(=O)[O-].[NH3+]CCO [2-hydroxyethylammonium acetate] ... 1796.8

Could you tell me which speed of sound is on file for `O` ?
1489.9

====

# PARTICULARS: 320.65 K; 101 kPa; Liquid; sound velocity cell
PROPERTY LABEL: speed of sound (m/s)
Field: numeric (m/s). Do not append units.

Some entries whose results are on file:
CC(=O)[O-].[NH3+]CCO [2-hydroxyethylammonium acetate] ... 1741.3
CO ... 1029.9
O ... 1539.6

Name the reported speed of sound value associated with the compound `CCO`
1067.9

====

# PARTICULARS: 323.15 K; 101 kPa; Liquid; sound velocity cell
PROPERTY LABEL: speed of sound (m/s)
Value expressed in m/s; do not type the unit.

For orientation, consider the following solved cases.
CO [methanol] ... 1022
O [water] ... 1542.1
CCO [ethanol] ... 1059.6

Next item in the queue.
Endpoint output: speed of sound of CC(=O)[O-].[NH3+]CCO [2-hydroxyethylammonium acetate] . Value?
1736

====

# PARTICULARS: 290.65 K; 101 kPa; Liquid; Vibrating tube method
Parameter: mass density. Scope: all listed entries.
Hi! Could you send only the number? It should be in kg/m3, unit omitted.

Worked cases, mass density given:
O [water] ... 998.68
CO [methanol] ... 793.768
CCO [ethanol] ... 791.692

Next up:
Returns the measured mass density for the input molecule. Input: CC(=O)[O-].[NH3+]CCO [2-hydroxyethylammonium acetate]
1153.28
